- Measurement target: human MGL from HeLa cells (Homo sapiens, UniProt Q99685)
- Construct: combining endogenously expressed MGL from HeLa cells with test compounds; endogenous in cells; host or cells: HeLa cells / cell homogenates
- Sequence (Q99685 whole entry): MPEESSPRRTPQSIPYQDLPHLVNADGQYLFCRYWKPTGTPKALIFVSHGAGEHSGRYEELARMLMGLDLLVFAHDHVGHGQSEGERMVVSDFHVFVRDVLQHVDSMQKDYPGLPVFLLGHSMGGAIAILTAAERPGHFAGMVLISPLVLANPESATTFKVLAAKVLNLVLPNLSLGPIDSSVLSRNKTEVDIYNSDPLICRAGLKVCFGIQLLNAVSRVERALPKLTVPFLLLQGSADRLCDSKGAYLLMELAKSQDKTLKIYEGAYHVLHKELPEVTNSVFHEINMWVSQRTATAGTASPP
- Experimental protocol: In vitro MGL activity assay: [glycerol-1,3-3H]-oleyl glycerol cleavage by MGL from HeLa cells
- Type: biochemical
- Condition info: 300 nM [Glycerol-1,3-3H]-oleyl glycerol, one hour incubation
Observation type: pIC50
In textbook form, pIC50 equals minus log to base ten of the concentration in mol/L.

Completed entries (count: 2):
Cc1nc2cccc(Cl)n2c1C(=O)N1CCc2c(nn(C)c2-c2ccccc2)C1    5.32
C[C@H]1c2nn(C)c(-c3cc(F)c(F)c(F)c3)c2CCN1C(=O)c1cccc(-c2cnn(C)c2)c1    7.03

// next entry
Q) Look up pIC50: "COc1cc(C(=O)N2CCc3c(nn(C)c3-c3cc(F)c(F)c(F)c3)[C@@H]2C)ccn1"
A) 7.09

###

Reported IC50 values for the following compounds.
- Measurement target: human MGL from HeLa cells (Homo sapiens)
- Construct: combining endogenously expressed MGL from HeLa cells with test compounds; endogenous in cells; host or cells: HeLa cells / cell homogenates
- Experimental protocol: In vitro MGL activity assay: [glycerol-1,3-3H]-oleyl glycerol cleavage by MGL from HeLa cells
- Assay type: biochemical
- Condition info: 300 nM [Glycerol-1,3-3H]-oleyl glycerol, one hour
Answer format: numeric, nM implied, no suffix.

Completed entries (count: 3):
COc1cccc2c(C(=O)N3CCc4c(nn(C)c4-c4cc(F)c(F)c(F)c4)[C@@H]3C)cnn12    26.4
Cc1nc2cccnn2c1C(=O)N1CCc2c(nn(C)c2-c2cc(F)c(F)c(F)c2)[C@@H]1C    23.2
C[C@H]1c2nn(C)c(-c3cc(F)c(F)c(F)c3)c2CCN1C(=O)c1cn(C)nc1C1(C)CC1    2490

Q) Look up IC50: "Cc1ccnc2c(C(=O)N3CCc4c(nn(C)c4-c4cc(F)c(F)c(F)c4)[C@@H]3C)cnn12"
A) 172

###

- Measurement target: human MGL from HeLa cells (Homo sapiens)
- Construct: combining endogenously expressed MGL from HeLa cells with test compounds; endogenous in cells; host or cells: HeLa cells / cell homogenates
- Experimental protocol: In vitro MGL activity assay: [glycerol-1,3-3H]-oleyl glycerol cleavage by MGL from HeLa cells
- Type: biochemical
- Condition info: 300 nM [Glycerol-1,3-3H]-oleyl glycerol, one hour incubation
- Description: MGL is the predominant hydrolase in HeLa cells/cell homogenates.
pIC50: −log10 of the molar value.
Returns one of Fulfilled or Not fulfilled; Fulfilled when pIC50 is >= 8.

Look over these answered cases.
Cn1nc2c(c1-c1cc3ccccc3[nH]1)CCN(C(=O)c1ccc3ncccc3c1)C2    Not fulfilled
CC1c2nn(C)c(-c3cc(F)cc(F)c3)c2CCN1C(=O)c1ncn(-c2ccccc2)n1 (stereo not drawn)    Not fulfilled
Cn1nc2c(c1-c1ccccc1)CCN(C(=O)c1cccc3nccn13)C2    Not fulfilled
Cn1nc2c(c1-c1ccccc1)CCN(C(=O)c1ccc3ccccc3n1)C2    Not fulfilled
Cn1nc2c(c1-c1ccccc1)CCN(C(=O)c1cccc3[nH]ccc13)C2    Not fulfilled

Q) In plain terms: is recorded pIC50 at least 8 for "C[C@H]1c2nn(C)c(-c3cc(F)cc(F)c3)c2CCN1C(=O)c1ccc(OCCF)cc1" ?
A) Not fulfilled

Q) Here is the next molecule: "Cn1nc2c(c1-c1ccc(C(F)(F)F)s1)CCN(C(=O)c1ccc3ncccc3c1)C2"
A) Not fulfilled

Q) Here is the next molecule: "C[C@H]1c2nn(C)c(-c3cc(F)cc(F)c3)c2CCN1C(=O)c1ccc(F)c(OCCF)c1"
A) Not fulfilled

Q) Here is the next molecule: "Cn1nc2c(c1-c1ccccc1)CCN(C(=O)c1cccc3ccnn13)C2"
A) Not fulfilled

Q) Here is the next molecule: "C[C@H]1c2nn(C)c(-c3cc(F)c(F)c(F)c3)c2CCN1C(=O)c1cccc2ccn(C)c12"
A) Fulfilled

###

- Measurement target: human MGL from HeLa cells (Homo sapiens)
- Construct: combining endogenously expressed MGL from HeLa cells with test compounds; endogenous in cells; host or cells: HeLa cells / cell homogenates
- Experimental protocol: In vitro MGL activity assay: [glycerol-1,3-3H]-oleyl glycerol cleavage by MGL from HeLa cells
- Type: biochemical
- Condition info: 300 nM [Glycerol-1,3-3H]-oleyl glycerol, one hour incubation
Reported pIC50 values for the following compounds.
In textbook form, pIC50 equals minus log to base ten of the concentration in mol/L.

Completed entries (count: 3):
C[C@H]1c2nn(C)c(-c3cc(F)c(F)c(F)c3)c2CCN1C(=O)c1cccc(-n2cccn2)n1 [Example 320]    7.10
C[C@H]1c2nn(C)c(-c3cc(F)cc(F)c3)c2CCN1C(=O)c1ccc2ncc(OCCF)cc2c1 [Example 166]    7.95
C[C@H]1c2nn(C)c(-c3cc(F)c(F)c(F)c3)c2CCN1C(=O)c1cccn2nccc12 [Example 227]    8.02

// next entry
Q) So what pIC50 did CC1c2nn(C)c(-c3cc(F)cc(Cl)c3)c2CCN1C(=O)c1ccc2ncccc2c1 (stereo not shown) [Example 177] get with human MGL from HeLa cells (Homo sapiens)?
A) 7.80

###

- Measurement target: human MGL from HeLa cells (Homo sapiens)
- Construct: combining endogenously expressed MGL from HeLa cells with test compounds; endogenous in cells; host or cells: HeLa cells / cell homogenates
- Experimental protocol: In vitro MGL activity assay: [glycerol-1,3-3H]-oleyl glycerol cleavage by MGL from HeLa cells
- Assay type: biochemical
- Condition info: 300 nM [Glycerol-1,3-3H]-oleyl glycerol, one hour
Observation type: pIC50
In textbook form, pIC50 equals minus log to base ten of the concentration in mol/L.

COc1ccnc(C(=O)N2CCc3c(nn(C)c3-c3cc(F)cc(OC(F)F)c3)[C@@H]2C)c1Cl    7.53
Cc1ncc2ccc(C(=O)N3CCc4c(nn(C)c4-c4cc(F)c(F)c(F)c4)[C@@H]3C)cn12    7.84

// next entry
Q) So what pIC50 did "C[C@H]1c2nn(C)c(-c3cc(F)c(F)c(F)c3)c2CCN1C(=O)c1nccn2cccc12" get with human MGL from HeLa cells (Homo sapiens)?
A) 7.88

###

- Measurement target: human MGL from HeLa cells (Homo sapiens, UniProt Q99685)
- Construct: combining endogenously expressed MGL from HeLa cells with test compounds; endogenous in cells; host or cells: HeLa cells / cell homogenates
- Experimental protocol: In vitro MGL activity assay: [glycerol-1,3-3H]-oleyl glycerol cleavage by MGL from HeLa cells
- Format: biochemical
- Condition info: 300 nM [Glycerol-1,3-3H]-oleyl glycerol, one hour
Reported log10(IC50) values for the following compounds.
Please interpret these as log10 of IC50 where IC50 is in nM.

Completed entries (count: 9):
C[C@H]1c2nn(C)c(-c3cccc(OC(F)F)c3)c2CCN1C(=O)c1ccc2ncccc2c1    1.65
COc1nccc(C(=O)N2CCc3c(nn(C)c3-c3cc(F)cc(OC(F)F)c3)[C@@H]2C)c1C    1.40
C[C@H]1c2nn(C)c(-c3cc(F)c(F)c(F)c3)c2CCN1C(=O)c1c(C(F)(F)F)cnc2[nH]ccc12    2.13
Cc1ccn2cnc(C(=O)N3CCc4c(nn(C)c4-c4cc(F)c(F)c(F)c4)[C@@H]3C)c2c1    2.28
Cc1c(C(=O)N2CCc3c(nn(C)c3-c3cc(F)c(F)c(F)c3)[C@@H]2C)ccn1C    0.95
COc1cc(Cl)cc(-c2c3c(nn2C)[C@H](C)N(C(=O)c2c(C)nc4ccccn24)CC3)c1    0.83
C[C@H]1c2nn(C)c(-c3cc(F)c(F)c(F)c3)c2CCN1C(=O)c1ccc2nnc(C(F)F)n2c1    2.94
COc1ccnc(C(=O)N2CCc3c(nn(C)c3-c3cc(F)cc(C(F)F)c3)[C@@H]2C)c1Cl    1.34
C[C@H]1c2nn(C)c(-c3cccc4c3OCC4)c2CCN1C(=O)c1ccc2ncccc2c1    1.74

// next entry
Q) Look up log10(IC50): "Cc1cnc2c(C(=O)N3CCc4c(nn(C)c4-c4cc(F)c(F)c(F)c4)[C@@H]3C)cccc2n1"
A) 1.93

###

- Measurement target: human MGL from HeLa cells (Homo sapiens)
- Construct: combining endogenously expressed MGL from HeLa cells with test compounds; endogenous in cells; host or cells: HeLa cells / cell homogenates
- Experimental protocol: In vitro MGL activity assay: [glycerol-1,3-3H]-oleyl glycerol cleavage by MGL from HeLa cells
- Format: biochemical
- Condition info: 300 nM [Glycerol-1,3-3H]-oleyl glycerol, one hour
Reported pIC50 values for the following molecules.
In textbook form, pIC50 equals minus log to base ten of the concentration in mol/L.

C[C@H]1c2nn(C)c(-c3cc(F)c(F)c(F)c3)c2CCN1C(=O)c1cnc2ncccc2c1    6.65
C[C@H]1c2nn(C)c(-c3cc(F)c(F)c(F)c3)c2CCN1C(=O)c1ccc2ncncc2c1    6.72
C[C@H]1c2nn(C)c(-c3cc(F)c(F)c(F)c3)c2CCN1C(=O)c1cccc2c1oc(=O)n2C    8.74

Q) Look up pIC50: "COc1cc(F)cc(-c2c3c(nn2C)[C@H](C)N(C(=O)c2ccnc(OC)c2C)CC3)c1"
A) 7.56

Q) Here is the next molecule: "C[C@H]1c2nn(C)c(-c3cc(F)c(F)c(F)c3)c2CCN1C(=O)c1cccc2c1CCOC2"
A) 7.72
